Please respond with reported relative viability for every item in the list.
System: NCI-H1792
Experiment: relative viability (nuclei count vs DMSO), 5 days (fraction); higher = more cells survive
Details: first compound 0.253 µM
Number only, please.

Request: Requested field: relative viability. Item: O=c1cc(-c2cccc3c2Sc2ccccc2S3)oc(N2CCOCC2)c1 + CS(=O)(=O)N1CCN(Cc2cc3nc(-c4cccc5[nH]ncc45)nc(N4CCOCC4)c3s2)CC1 [Pictilisib] (partner 1 µM)
Response: 0.257

Request: Requested field: relative viability. Item: O=c1cc(-c2cccc3c2Sc2ccccc2S3)oc(N2CCOCC2)c1 + C[C@@H](Oc1cc(-c2cnn(C3CCNCC3)c2)cnc1N)c1c(Cl)ccc(F)c1Cl [Crizotinib] (partner 1 µM)
Response: 1.64

Request: Requested field: relative viability. Item: O=c1cc(-c2cccc3c2Sc2ccccc2S3)oc(N2CCOCC2)c1 + NC(=O)Nc1cc(-c2cccc(F)c2)sc1C(=O)N[C@H]1CCCNC1 [AZD7762] (partner 0.2 µM)
Response: 0.632

----------
Tested on: ABC-1
Experiment: relative viability (nuclei count vs DMSO), 5 days (fraction); higher = more cells survive
Settings: first compound 20 µM
Please respond with reported relative viability for every item in the list.
Number only, please.

Request: Requested field: relative viability. Item: COCC1(CO)C(=O)C2CCN1CC2 (centres undefined) [PRIMA-1MET] + CCNC(=O)c1noc(-c2cc(C(C)C)c(O)cc2O)c1-c1ccc(CN2CCOCC2)cc1 [Luminespib] (partner 0.01 µM)
Response: 0.171

Request: Requested field: relative viability. Item: COCC1(CO)C(=O)C2CCN1CC2 (centres undefined) [PRIMA-1MET] + CC(C)C[C@H](NC(=O)[C@H](Cc1ccccc1)NC(=O)c1cnccn1)B(O)O [Bortezomib] (partner 0.002 µM)
Response: 0.276

Request: Requested field: relative viability. Item: COCC1(CO)C(=O)C2CCN1CC2 (centres undefined) [PRIMA-1MET] + Nc1ncn([C@H]2C[C@H](O)[C@@H](CO)O2)c(=O)n1 [Decitabine] (partner 2 µM)
Response: 0.552

Request: Requested field: relative viability. Item: COCC1(CO)C(=O)C2CCN1CC2 (centres undefined) [PRIMA-1MET] + C[C@]1(O)C[C@@H](c2nc(-c3ccc4ccc(-c5ccccc5)nc4c3)c3c(N)nccn32)C1 [Linsitinib] (partner 1 µM)
Response: 0.519

----------
System: HOP-62
Assay: relative viability (nuclei count vs DMSO), 5 days (fraction); higher = more cells survive
Settings: first compound 6.325 µM
Quantity Measured: relative viability
Number only, please.

Request: Requested field: relative viability. Item: COCC1(CO)C(=O)C2CCN1CC2 (stereo not given) [PRIMA-1MET] + Cc1cc(Nc2cc(N3CCN(C)CC3)nc(Sc3ccc(NC(=O)C4CC4)cc3)n2)n[nH]1 [Tozasertib] (partner 0.1 µM)
Response: 0.383

Request: Requested field: relative viability. Item: COCC1(CO)C(=O)C2CCN1CC2 (stereo not given) [PRIMA-1MET] + NC(=O)Nc1cc(-c2cccc(F)c2)sc1C(=O)N[C@H]1CCCNC1 [AZD7762] (partner 0.2 µM)
Response: 0.655

Request: Requested field: relative viability. Item: COCC1(CO)C(=O)C2CCN1CC2 (stereo not given) [PRIMA-1MET] + C[C@@H](Oc1cc(-c2cnn(C3CCNCC3)c2)cnc1N)c1c(Cl)ccc(F)c1Cl [Crizotinib] (partner 1 µM)
Response: 0.969

Request: Requested field: relative viability. Item: COCC1(CO)C(=O)C2CCN1CC2 (stereo not given) [PRIMA-1MET] + COc1cc2c(Oc3ccc(NC(=O)C4(C(=O)Nc5ccc(F)cc5)CC4)cc3F)ccnc2cc1OCCCN1CCOCC1 [Foretinib] (partner 0.25 µM)
Response: 1.1

Request: Requested field: relative viability. Item: COCC1(CO)C(=O)C2CCN1CC2 (stereo not given) [PRIMA-1MET] + O=C(CCCCCCC(=O)Nc1ccccc1)NO [Vorinostat] (partner 1 µM)
Response: 0.623

----------
Please respond with reported relative viability for every item in the list.
Test system: NCI-H596
Test: relative viability (nuclei count vs DMSO), 5 days (fraction); higher = more cells survive
Details: first compound 0.253 µM
Number only, please.

Request: Please tell me: relative viability of COc1nc(C)cnc1NS(=O)(=O)c1cccnc1-c1ccc(-c2nnco2)cc1 [Zibotentan] + Nc1ncn([C@H]2C[C@H](O)[C@@H](CO)O2)c(=O)n1 [Decitabine] (partner 2 µM) , system NCI-H596?
Response: 0.911

Request: Please tell me: relative viability of COc1nc(C)cnc1NS(=O)(=O)c1cccnc1-c1ccc(-c2nnco2)cc1 [Zibotentan] + COc1cc2c(Oc3ccc(NC(=O)C4(C(=O)Nc5ccc(F)cc5)CC4)cc3F)ccnc2cc1OCCCN1CCOCC1 [Foretinib] (partner 0.25 µM) , system NCI-H596?
Response: 0.794

Request: Please tell me: relative viability of O=c1cc(-c2cccc3c2Sc2ccccc2S3)oc(N2CCOCC2)c1 + C[C@]1(O)C[C@@H](c2nc(-c3ccc4ccc(-c5ccccc5)nc4c3)c3c(N)nccn32)C1 [Linsitinib] (partner 1 µM) , system NCI-H596?
Response: 1.2

Request: Please tell me: relative viability of O=c1cc(-c2cccc3c2Sc2ccccc2S3)oc(N2CCOCC2)c1 + Cc1cc(Nc2cc(N3CCN(C)CC3)nc(Sc3ccc(NC(=O)C4CC4)cc3)n2)n[nH]1 [Tozasertib] (partner 0.1 µM) , system NCI-H596?
Response: 0.892

Request: Please tell me: relative viability of COc1nc(C)cnc1NS(=O)(=O)c1cccnc1-c1ccc(-c2nnco2)cc1 [Zibotentan] + C[C@]1(O)C[C@@H](c2nc(-c3ccc4ccc(-c5ccccc5)nc4c3)c3c(N)nccn32)C1 [Linsitinib] (partner 1 µM) , system NCI-H596?
Response: 1.08

----------
Please respond with reported relative viability for every item in the list.
System: Calu-6
Assay: relative viability (nuclei count vs DMSO), 5 days (fraction); higher = more cells survive
Conditions: first compound 0.2 µM

Request: Requested field: relative viability. Item: COCC1(CO)C(=O)C2CCN1CC2 (centres undefined) [PRIMA-1MET] + CS(=O)(=O)CCNCc1ccc(-c2ccc3ncnc(Nc4ccc(OCc5cccc(F)c5)c(Cl)c4)c3c2)o1 [Lapatinib] (partner 2 µM)
Response: 1.14

Request: Requested field: relative viability. Item: COCC1(CO)C(=O)C2CCN1CC2 (centres undefined) [PRIMA-1MET] + C[C@@H](Oc1cc(-c2cnn(C3CCNCC3)c2)cnc1N)c1c(Cl)ccc(F)c1Cl [Crizotinib] (partner 1 µM)
Response: 0.795

Request: Requested field: relative viability. Item: COCC1(CO)C(=O)C2CCN1CC2 (centres undefined) [PRIMA-1MET] + COc1cc2c(Oc3ccc(NC(=O)C4(C(=O)Nc5ccc(F)cc5)CC4)cc3F)ccnc2cc1OCCCN1CCOCC1 [Foretinib] (partner 0.25 µM)
Response: 0.918

Request: Requested field: relative viability. Item: COCC1(CO)C(=O)C2CCN1CC2 (centres undefined) [PRIMA-1MET] + O=C(c1cc(Cc2n[nH]c(=O)c3ccccc23)ccc1F)N1CCN(C(=O)C2CC2)CC1 [Olaparib] (partner 8 µM)
Response: 0.547

----------
Test system: NCI-H2126
Test: relative viability (nuclei count vs DMSO), 5 days (fraction); higher = more cells survive
Settings: first compound 0.6325 µM
Please respond with reported relative viability for every item in the list.
Number only, please.

Request: Please tell me: relative viability of COCC1(CO)C(=O)C2CCN1CC2 (configuration not stated) [PRIMA-1MET] + NC(=O)Nc1cc(-c2cccc(F)c2)sc1C(=O)N[C@H]1CCCNC1 [AZD7762] (partner 0.2 µM) , system NCI-H2126?
Response: 1.02

Request: Please tell me: relative viability of COCC1(CO)C(=O)C2CCN1CC2 (configuration not stated) [PRIMA-1MET] + CC(=O)Nc1cccc(-n2c(=O)n(C3CC3)c(=O)c3c(Nc4ccc(I)cc4F)n(C)c(=O)c(C)c32)c1 [Trametinib] (partner 0.02 µM) , system NCI-H2126?
Response: 0.47

Request: Please tell me: relative viability of COCC1(CO)C(=O)C2CCN1CC2 (configuration not stated) [PRIMA-1MET] + CS(=O)(=O)N1CCN(Cc2cc3nc(-c4cccc5[nH]ncc45)nc(N4CCOCC4)c3s2)CC1 [Pictilisib] (partner 1 µM) , system NCI-H2126?
Response: 0.485

Request: Please tell me: relative viability of COCC1(CO)C(=O)C2CCN1CC2 (configuration not stated) [PRIMA-1MET] + CC(=O)c1c(C)c2cnc(Nc3ccc(N4CCNCC4)cn3)nc2n(C2CCCC2)c1=O [Palbociclib] (partner 0.5 µM) , system NCI-H2126?
Response: 0.336

Request: Please tell me: relative viability of COCC1(CO)C(=O)C2CCN1CC2 (configuration not stated) [PRIMA-1MET] + CCNC(=O)c1noc(-c2cc(C(C)C)c(O)cc2O)c1-c1ccc(CN2CCOCC2)cc1 [Luminespib] (partner 0.01 µM) , system NCI-H2126?
Response: 0.867

Request: Please tell me: relative viability of COCC1(CO)C(=O)C2CCN1CC2 (configuration not stated) [PRIMA-1MET] + Cc1nc(Nc2ncc(C(=O)Nc3c(C)cccc3Cl)s2)cc(N2CCN(CCO)CC2)n1 [Dasatinib] (partner 0.075 µM) , system NCI-H2126?
Response: 0.58

Request: Please tell me: relative viability of COCC1(CO)C(=O)C2CCN1CC2 (configuration not stated) [PRIMA-1MET] + CS(=O)(=O)CCNCc1ccc(-c2ccc3ncnc(Nc4ccc(OCc5cccc(F)c5)c(Cl)c4)c3c2)o1 [Lapatinib] (partner 2 µM) , system NCI-H2126?
Response: 0.757
